Source: patent US11254668B2

Reported IC50 values for a set of molecules
Biological target: JAK2 (Homo sapiens (Human))
Test: JAK Caliper Enzyme Assay at 1 mM ATP, JAK2
Type: biochemical
measured attribute: IC50

* CS(=O)(=O)c1ccc(-c2cc3ncccc3c(-c3ccn(C4(CC#N)CN(S(C)(=O)=O)C4)n3)n2)cn1 | 479 nM
* Cn1ccc(-c2cc(-c3cnn([C@]4(CC#N)C[C@@H](C#N)C4)n3)c3cccnc3c2)n1 | 246 nM
* N#CC[C@]1(n2ncc(-c3cc(-c4cc(CO)[nH]n4)cc4ncccc34)n2)C[C@H](C#N)C1 | 131 nM
* N#CC[C@H]1C[C@](CC#N)(n2ccc(-c3nc(-c4cn[nH]c4)cc4ncccc34)n2)C1 | 774 nM
* Cc1cc(-c2nc(-c3cc(N)n(C)n3)cc3ncccc23)nn1[C@]1(CC#N)C[C@H](C#N)C1 | 46 nM
* COc1ccc(-c2cc3ncccc3c(-c3ccn(C4(CC#N)CN(CC(F)(F)F)C4)n3)n2)cn1 | 902 nM
* Cn1cc(-c2cc(-c3ccn(C4(CC#N)CN(CC(F)(F)F)C4)n3)c3cccnc3c2)cn1 | 2950 nM
* N#CCC1(n2ncc(-c3cc(-c4ccn[nH]4)cc4ncccc34)n2)CN(S(=O)(=O)C2COC2)C1 | 195 nM
* Cn1cc(-c2cc3ncccc3c(-c3ccn([C@]4(CC#N)C[C@@H](C#N)C4)n3)n2)c(CO)n1 | 34 nM
* N#CC[C@]1(n2cc(-c3cc(-c4cn[nH]c4N)cc4ncccc34)cn2)C[C@H](C#N)C1 | 1750 nM
* N#CC[C@]1(n2ccc(-c3nc(-c4cnnc(N)c4)cc4ncccc34)n2)C[C@H](C#N)C1 | 1120 nM
* Cc1ccc(-c2cc3ncccc3c(-c3ccn(C4(CC#N)CN(S(C)(=O)=O)C4)n3)n2)cn1 | 1180 nM
* N#CC[C@]1(n2ccc(-c3nc(-c4cc(N)cnn4)cc4ncccc34)n2)C[C@@H](C#N)C1 | 3770 nM
* Cn1cc(-c2cc3ncccc3c(-c3ccn(C4(CC#N)CN(CC#N)C4)n3)n2)cn1 | 71 nM
* CS(=O)(=O)N1CC(CC#N)(n2ccc(-c3cc(-c4cn[nH]c4)cc4ncccc34)n2)C1 | 2500 nM
* Cn1nc(-c2cc3ncccc3c(-c3ccn([C@]4(CC#N)C[C@@H](C#N)C4)n3)n2)cc1CN | 205 nM
* Cn1cc(-c2cc3ncccc3c(-c3ccn([C@]4(CC#N)C[C@@H](C#N)C4)n3)n2)cn1 | 90 nM
* Cn1cc(-c2cc3ncccc3c(-c3cn(C4(CC#N)CN(CC(F)(F)F)C4)nn3)n2)cn1 | 28 nM
* CS(=O)(=O)N1CC(CC#N)(n2ccc(-c3nc(-c4ccccc4F)cc4ncccc34)n2)C1 | > 10000 nM
* Cn1ncc(-c2cc3ncccc3c(-c3ccn([C@]4(CC#N)C[C@H](C#N)C4)n3)n2)c1N | 30 nM
* Cn1ncc(-c2cc(-c3cnn([C@]4(CC#N)C[C@@H](C#N)C4)n3)c3cccnc3c2)c1C(N)=O [Example 334] | 4710 nM
* Cc1nc(-c2cc3ncccc3c(-c3ccn(C4(CC#N)CN(CC(F)(F)F)C4)n3)n2)cn1C | 1660 nM
* Cc1n[nH]cc1-c1cc2ncccc2c(-c2ccn(C3(CC#N)CN(S(C)(=O)=O)C3)n2)n1 | 875 nM
* N#CCC1(n2ccc(-c3nc(-c4cnn(C5COC5)c4)cc4ncccc34)n2)CN(CC(F)(F)F)C1 | 82 nM
* CS(=O)(=O)N1CC(CC#N)(n2ccc(-c3nc(-c4cc(F)ccc4O)cc4ncccc34)n2)C1 | > 10000 nM
* CS(=O)(=O)c1ccc(-c2cc3ncccc3c(-c3ccn(C4(CC#N)CC(C#N)C4)n3)n2)cn1 (stereo not drawn) | 56 nM
* N#CCC1(n2ccc(-c3nc(-c4ccc(O)nc4)cc4ncccc34)n2)CN(CC(F)(F)F)C1 | 397 nM
* Cn1cc(-c2cc3ncccc3c(-c3cc(C4(CC#N)CN(CC#N)C4)no3)n2)cn1 | 45 nM
* Cn1nc(-c2cc3ncccc3c(-c3ccn([C@]4(CC#N)C[C@@](C)(C#N)C4)n3)n2)cc1N | 4330 nM
* Cn1nc(CO)cc1-c1cc2ncccc2c(-c2ccn([C@]3(CC#N)C[C@@H](C#N)C3)n2)n1 | 915 nM

###

Molecular target: TYK2 (Homo sapiens (Human), UniProt P29597)
Sequence (P29597 897-1176): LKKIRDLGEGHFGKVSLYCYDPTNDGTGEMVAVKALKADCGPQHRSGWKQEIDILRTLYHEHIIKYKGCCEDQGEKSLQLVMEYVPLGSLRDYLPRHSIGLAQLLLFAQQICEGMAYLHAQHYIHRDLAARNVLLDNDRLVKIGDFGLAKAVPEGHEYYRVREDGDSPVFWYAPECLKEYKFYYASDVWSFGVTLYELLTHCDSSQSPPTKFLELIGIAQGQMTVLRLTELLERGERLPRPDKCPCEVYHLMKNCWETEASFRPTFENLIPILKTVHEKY
Assay: JAK Caliper Enzyme Assay at 1 mM ATP, TYK2
Format: biochemical
measured attribute: IC50 (nM)

- N#CC[C@]1(n2ncc(-c3cc(-c4cc(CO)[nH]n4)cc4ncccc34)n2)C[C@H](C#N)C1: 18
- N#CC[C@]1(n2ncc(-c3cc(-c4cn[nH]c4N)cc4ncccc34)n2)C[C@H](C#N)C1: 16
- N#CCC1(n2ccc(-c3nc(-c4cnc5c(c4)CCC5)cc4ncccc34)n2)CN(CC(F)(F)F)C1: 1510
- CS(=O)(=O)N1CC(CC#N)(n2ccc(-c3nc(-c4ccccc4O)cc4ncccc34)n2)C1: 15
- Cn1ncc(-c2cc3ncccc3c(-c3ccn(C4(CC#N)CN(S(C)(=O)=O)C4)n3)n2)c1N: 52
- C[C@]1(C#N)C[C@](CC#N)(n2ccc(-c3nc(-c4cc[nH]n4)cc4ncccc34)n2)C1: 1060
- N#CC[C@]1(n2ncc(-c3cc(-c4cnn(CCO)c4)cc4ncccc34)n2)C[C@H](C#N)C1: 9
- N#CC[C@]1(n2ccc(-c3nc(-c4cc(N)[nH]n4)cc4ncccc34)n2)C[C@H](C#N)C1: 8
- Cn1cc(-c2cc(-c3ccn(C4(CC#N)CN(S(C)(=O)=O)C4)n3)c3cccnc3c2)cn1: 212
- N#CCC1(n2ccc(-c3nc(-c4ccn[nH]4)cc4ncccc34)n2)CC(CO)C1 (stereo not drawn) [Example 29]: 437
- Cc1nc(-c2cc(-c3cnn([C@]4(CC#N)C[C@@H](C#N)C4)n3)c3cccnc3c2)c[nH]1: 33
- N#CCC1(n2ccc(-c3nc(-c4cn(C5COC5)cn4)cc4ncccc34)n2)CN(CC(F)(F)F)C1: 223
- Cn1ncc(-c2cc3ncccc3c(-c3ccn(C4(CC#N)CN(S(C)(=O)=O)C4)n3)n2)c1C(N)=O: 685
- Cn1cc(-c2cc3ncccc3c(-c3ccn(C4(CC#N)CN(S(C)(=O)=O)C4)n3)n2)c(N)n1: 8
- N#CC[C@]1(n2ncc(-c3cc(-c4cccc(C(N)=O)n4)cc4ncccc34)n2)C[C@H](C#N)C1 [Example 349]: 17
- CO[C@H]1C[C@@](CC#N)(n2ccc(-c3nc(-c4cnn(C)c4)cc4ncccc34)n2)C1: 61
- Cc1ccn(-c2cc3ncccc3c(-c3ccn(C4(CC#N)CN(CC(F)(F)F)C4)n3)n2)n1: 767
- N#CCC1(n2ccc(-c3nc(-c4ccc5nncn5c4)cc4ncccc34)n2)CN(CC(F)(F)F)C1: 129
- Cc1cc(-c2nc(-c3cc(N)n(C)n3)cc3ncccc23)nn1[C@]1(CC#N)C[C@@H](C#N)C1: 46
- N#CCC1(n2ccc(-c3nc(-c4ccc(O)nc4)cc4ncccc34)n2)CN(CC(F)(F)F)C1: 21
- N#CC[C@]1(n2ccc(-c3nc(-c4cnnc(N)c4)cc4ncccc34)n2)C[C@@H](C#N)C1: 48
- Cn1nc(-c2cc3ncccc3c(-c3ccn([C@]4(CC#N)C[C@@H](C#N)C4)n3)n2)cc1CN: 109
- N#CC[C@]1(n2ncc(-c3cc(-c4ccc(N)cn4)cc4ncccc34)n2)C[C@H](C#N)C1: 40
- N#CC[C@]1(n2ccc(-c3nc(-c4ccc(N)nc4)cc4ncccc34)n2)C[C@@H](C#N)C1: 9
- CS(=O)(=O)N1CC(CC#N)(n2ncc(-c3cc(-c4ccc(N)nc4)cc4ncccc34)n2)C1: 67
- N#CCC1(n2ccc(-c3nc(-c4cn[nH]c4)cc4ncccc34)n2)CC(C#N)C1 (stereo not drawn): 7
- N#CCC1(n2ncc(-c3cc(-c4cc[nH]n4)cc4ncccc34)n2)CN(CC2(F)CC2)C1: 315
- CS(=O)(=O)N1CC(CC#N)(n2ccc(-c3nc(-c4ccnc(O)c4)cc4ncccc34)n2)C1: 74
- N#CCC1(n2ccc(-c3nc(-c4ccn[nH]4)cc4ncccc34)n2)CC(CO)C1 (stereo not drawn) [Example 28]: 207
- C[C@]1(C#N)C[C@@](CC#N)(n2ccc(-c3nc(-c4cn[nH]c4)cc4ncccc34)n2)C1: 22

###

Molecular target: JAK2 (Homo sapiens (Human), UniProt O60674)
Sequence (O60674 849-1124): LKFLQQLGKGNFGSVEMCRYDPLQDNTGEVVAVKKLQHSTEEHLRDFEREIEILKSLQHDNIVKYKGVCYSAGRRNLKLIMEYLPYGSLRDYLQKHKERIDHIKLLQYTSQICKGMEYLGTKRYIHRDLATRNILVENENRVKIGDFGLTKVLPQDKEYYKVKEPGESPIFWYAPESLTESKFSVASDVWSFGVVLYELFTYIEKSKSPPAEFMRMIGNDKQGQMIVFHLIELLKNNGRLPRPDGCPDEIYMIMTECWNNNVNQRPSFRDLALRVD
Test: JAK Caliper Enzyme Assay at 1 mM ATP, JAK2
Assay type: biochemical
Conditions: JAK Caliper enzyme assay
pIC50: −log10 of the molar value.
measured attribute: pIC50

* Cc1nc(-c2cc(-c3cnn([C@]4(CC#N)C[C@H](C#N)C4)n3)c3cccnc3c2)ccc1CCO [Example 378] | 7.03
* N#CC[C@]1(n2cc(-c3cc(-c4nc(CO)cs4)cc4nccn34)cn2)C[C@@H](C#N)C1 [Example 467] | 6.29
* CS(=O)(=O)N1CC(CC#N)(n2cnc(-c3cc(-c4ccn[nH]4)cc4ncccc34)n2)C1 [Example 452] | 5.17
